- tested-on: Sphingosine 1-phosphate receptor 2 (Homo sapiens) (UniProt O95136)
- Sequence (O95136 whole entry, looked up): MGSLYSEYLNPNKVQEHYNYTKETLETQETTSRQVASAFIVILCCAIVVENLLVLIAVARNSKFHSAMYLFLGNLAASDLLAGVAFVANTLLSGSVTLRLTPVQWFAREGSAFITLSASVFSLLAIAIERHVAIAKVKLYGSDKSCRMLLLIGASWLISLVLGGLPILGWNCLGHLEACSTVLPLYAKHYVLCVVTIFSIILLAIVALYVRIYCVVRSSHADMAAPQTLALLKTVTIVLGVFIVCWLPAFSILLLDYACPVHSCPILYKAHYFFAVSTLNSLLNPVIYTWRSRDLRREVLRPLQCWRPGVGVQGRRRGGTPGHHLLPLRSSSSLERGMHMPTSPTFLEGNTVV
- assay: activation of human S1P2 receptor – cell-based, primary screen (AID 729)
- experimental-context: S1P2-expressing cell line, agonist reporter read-out; at 4.5 µM
Among all 97,000 compounds or so, about 450 (0.46%) were called active. Cut-off read from the data, not from the text of the source: active = activation above about 16%; inactive = the rest. The list comes from a sample in which actives are over-represented; it also holds close analogues and randomly drawn compounds.
Labels: true for active, false for inactive

{"columns": ["compound", "class-label"],
 "data": [
  ["CCC(C)n1c(-c2cc(OC)c(OC)c(OC)c2)nc2nc3ccccc3nc21 (stereo not drawn)", "true"],
  ["CCCCSc1[nH]c(=O)c(C(=O)OCC)cc1C#N", "false"],
  ["COCCNC(=O)Cn1cc(C(=O)c2cccs2)c2ccccc21", "false"],
  ["O=C(c1cc2c(s1)CCC2)N1CCN(c2ccccc2)CC1", "false"],
  ["CC(C)(C)OC(=O)c1c(N)n(CCCN2CCCC2=O)c2nc3ccccc3nc12", "false"],
  ["COc1ccc(/C=N/Nc2nc3ccccc3c(=O)[nH]2)cc1", "false"],
  ["O=C(Cc1ncc(C(F)(F)F)cc1Cl)Nc1cccc(Br)c1", "false"],
  ["CCc1ccc2c(c1)C1(NN=C(c3ccccc3)S1)C(=O)N2 (stereo not drawn)", "false"],
  ["COc1ccc(-c2nnc(SCc3cccnc3)o2)cc1", "false"],
  ["O=C(CN1CCSCC1)N/N=C/c1ccc(F)cc1F", "false"],
  ["CS(=O)(=O)Nc1ccc(C(=O)N2CCCC2)cc1", "false"],
  ["Cc1nc(C)c(C(=O)N(c2ccc(C)c(C)c2)C(C(=O)NCc2ccco2)c2ccccc2)s1 (stereo not drawn)", "false"],
  ["CSCc1cc(N(C)C)nc(SCc2ccc(Cl)cc2Cl)n1", "false"],
  ["O=C(O)COc1ccc(-c2nccc(-c3cccs3)n2)cc1", "false"],
  ["Cc1ccc(-n2ccc(=O)c(C(=O)O)n2)cc1", "false"],
  ["COc1ccc(N(CCC#N)S(=O)(=O)c2ccc(Cl)cc2)cc1", "false"],
  ["Cc1cc(C)c2nc(NC(=O)c3ccc4c(c3)OCO4)sc2c1", "false"],
  ["O=c1[nH]c(-c2cccs2)nc2ccccc12", "true"],
  ["N#Cc1c(N)n(CCOC(=O)c2ccc(Cl)cc2)c2nc3ccccc3nc12", "true"],
  ["Cc1cc(C(=O)OCC(=O)Nc2ccc(F)c(F)c2)c(C)o1", "false"],
  ["C/C(=N\\NS(=O)(=O)c1cccc([N+](=O)[O-])c1)c1cc2ccccc2o1", "false"],
  ["Cc1ccc(-c2nnc(C)c(N3CC(C)OC(C)C3)n2)cc1 (stereo not drawn)", "false"],
  ["COc1ccc(Cc2nnc(SCC(=O)c3cccc([N+](=O)[O-])c3)n2C)cc1", "false"]
]}
